- Tested on: FGFR1
- experimentalSetup: concentration: 1 μM, replicates: in singlicate; n = 1;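 further: KINOMEscan kinase panel screen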
Entries and their %Inh
quantityMeasured: %Inh

- O=C(NCCCN1CCCC1=O)c1cnc(NCc2cc(Cl)ccc2Cl)nc1NC1CCNCC1: 11%
- CN1c2ccc(-c3ccc(C(=O)NCCO)cc3)cc2-c2[nH]ncc2S1(=O)=O: 30%
- Cc1ccc(O)cc1Nc1cc(C(F)(F)F)nc2ccc(-c3ccncc3)cc12: 0%
- CN1CCC(n2cnc(-c3ccc(F)cc3)c2-c2ccnc(NC3CCNCC3)n2)CC1: 4%
- Cl.O=S(=O)(c1cccc(F)c1)c1ccc(Nc2ncnc3cc(Br)sc23)cc1Cl: 0%
- COc1cc2ncnc(Nc3ccc(OCc4ccccc4Br)c(Cl)c3)c2cc1OC.Cl: 0%
- CC(C)(C)OC(=O)NC1CCCN(c2cc(-c3ccc4c(N)n[nH]c4c3)nc(N)n2)C1 (centres unmarked): 0%
- Cc1ccc(C)c(NC(=O)NCCNc2ccnc(Nc3ccc(F)cc3)n2)c1: 0%

---

- Tested on: WEE2
- experimentalSetup: concentration: 1 μM, replicates: in singlicate; n = 1
quantityMeasured: %Inh (%)

* CC(C)(C)c1ccc(-n2cnc3c(N)ncnc32)cc1 | 2
* Fc1ccc(-c2ncn(CCCNCc3ccccc3)c2-c2ccncc2)cc1 | 4
* CN1c2ccc(-c3ccc(C(=O)NCCO)cc3)cc2-c2[nH]ncc2S1(=O)=O | 1
* C[C@@H]1CCN(C(=O)CO)C[C@@H]1N(C)c1ncnc2[nH]ccc12 | 0
* FC(F)(F)c1ccc(-c2cc(-c3c[nH]nc3-c3ccccn3)ccn2)cc1 | 0
* Nc1nc(-c2ccc3c(N)n[nH]c3c2)cc(N2CCCCC2)n1 | 0
* Nc1nccc2scc(-c3ccc4c(c3)CCN4C(=O)Cc3cc(F)ccc3F)c12 | 0
* CCc1nc(-c2cccc(C)c2)c(-c2ccnc(NC(=O)c3ccccc3)c2)s1 | 10
* CC(=O)Nc1n[nH]c2ncc(-c3ccccc3)cc12 | 20

---

- System: MST1
- Construct: gene STK4
- experimentalSetup: concentration: 1 μM, replicates: in singlicate; n = 1
A collection of compounds and their measured %Inh
quantityMeasured: %Inh (%)

* COc1cc2c(Nc3cccc(NC(=O)c4ccccc4)c3)ncnc2cc1OCCCN1CCOCC1 [GSK223810] | 4
* CC(C)N1CCC(n2cnc(-c3ccc(F)cc3)c2-c2ccnc(N)n2)CC1 [SB-223132] | 0
* CC(C)(C)OC(=O)NC1CCCN(c2cc(-c3ccc4c(N)n[nH]c4c3)nc(N)n2)C1 (centres unmarked) [GSK2286096] | 0
* COc1ccc(-c2nc3n(c2-c2ccncc2)CCC3)cc1 [SKF-104493] | 0
* CC(=O)Nc1n[nH]c2ncc(-c3ccccc3)cc12 [SB-548492] | 0
* Cn1ccc2ncnc(Nc3ccc(Oc4cccc(Cl)c4)c(Cl)c3)c21 | 6
* COc1cc2ncnc(Nc3ccc(OCc4ccccc4Br)c(Cl)c3)c2cc1OC.Cl [GI261590] | 10
* O=c1cc(N2CCOCC2)nc2n(Cc3cccc(Cl)c3)ccn12 [GSK2296823] | 0
* Cc1ccc(C)c(NC(=O)NCCNc2ccnc(Nc3ccc(F)cc3)n2)c1 [GSK1379878] | 0
* Cc1cc(N2CCC(NS(=O)(=O)c3ccc(F)cc3)CC2)nc(Nc2cccc(C#N)c2)n1.O=C(O)C(F)(F)F [GSK1653537] | 8
* Nc1nc(-c2ccc3c(N)n[nH]c3c2)cc(N2CCC[C@@H](C(=O)Nc3ccccc3)C2)n1.O=C(O)C(F)(F)F.O=C(O)C(F)(F)F [GSK2288359] | 0
* Clc1ccc(-c2cc(-c3c[nH]nc3-c3ccccn3)ccn2)cc1 [GW681251] | 0
* FC(F)(F)c1ccc(-c2nn3ncccc3c2-c2ccnc(Nc3cccc(C(F)(F)F)c3)n2)cc1 [GW828205] | 0
* CS(=O)(=O)CCNCc1ccc(-c2ccc3ncnc(Nc4ccc(OCc5ccccc5)c(Cl)c4)c3c2)o1.Cl [GW574783] | 23
* O=C(Nc1n[nH]c2nc(-c3ccco3)c(Br)cc12)c1ccc(CN2CCCC2)cc1.O=C(O)[C@H](O)[C@@H](O)C(=O)O [SB-742352] | 0
* Oc1ccc2ncnc(Nc3ccc(OCc4ccccc4)cc3)c2c1 [GI262866] | 59
* Fc1cccc(COc2ccc(Nc3ncnc4nn5ccccc5c34)cc2Cl)c1 [GW689066] | 0

---

Measured %Inh of individual entries
- Test system: DDR2
- experimentalSetup: concentration: 1 μM, replicates: in singlicate; n = 1
quantityMeasured: %Inh

* O=C(Nc1ccccc1)Nc1ccc(Oc2ccc3nccn3n2)cc1 | 100%
* CNc1nccc(-c2c(-c3ccc(F)cc3)ncn2C2CCN(C)CC2)n1 | 58%
* O=c1cc(N2CCOCC2)nc2n(Cc3cccc(Cl)c3)ccn12 | 0%
* O=C(Nc1n[nH]c2nc(-c3ccco3)c(Br)cc12)c1ccc(CN2CCCC2)cc1.O=C(O)[C@H](O)[C@@H](O)C(=O)O | 0%
* CCc1nc(-c2cccc(N(C)S(=O)(=O)c3ccccc3)c2)c(-c2ccnc(Nc3ccc(N4CCN(C(C)=O)CC4)nc3)n2)s1 | 5%

---

- System: NIM1
- Construct: gene MGC42105
- experimentalSetup: concentration: 1 μM, replicates: in singlicate; n = 1
Catalogue of %Inh readings, one per entry.
quantityMeasured: %Inh (%)

- COc1ccc(-c2nc3n(c2-c2ccncc2)CCC3)cc1: 19
- Cl.Cn1ccc(-c2cccc(Nc3ccnc4cc(-c5nccs5)ccc34)c2)n1: 18
- CCc1nc(-c2cccc(N(C)S(=O)(=O)c3ccccc3)c2)c(-c2ccnc(Nc3ccc(N4CCN(C(C)=O)CC4)nc3)n2)s1: 0
- CN1c2ccc(-c3ccc(C(=O)NCCO)cc3)cc2-c2[nH]ncc2S1(=O)=O: 0
- O=C(CCO)NCCn1ccc2ncnc(Nc3ccc(Oc4cccc(C(F)(F)F)c4)c(Cl)c3)c21: 0
- N#Cc1ccc(Oc2ccc(Nc3ncnc4cc[nH]c34)cc2Cl)cc1: 30
- CC(C)N1CCC(n2cnc(-c3ccc(F)cc3)c2-c2ccnc(N)n2)CC1: 0
- O=C(Nc1ccccc1)Nc1ccc(Oc2ccc3nccn3n2)cc1: 0
- Nc1nc(-c2ccc3c(N)n[nH]c3c2)cc(N2CCCCC2)n1: 0
- Cl.Cl.c1ccc(-c2cc3ccncc3cc2OC2CCNCC2)cc1: 12
- Cl.c1ccc(Cn2ncc3cc(Nc4ncnc5ccccc45)ccc32)cc1: 3
- Nc1nc(-c2ccc3c(N)n[nH]c3c2)cc(N2CCC[C@@H](C(=O)Nc3ccccc3)C2)n1.O=C(O)C(F)(F)F.O=C(O)C(F)(F)F: 8
- O=C(Nc1ccccc1F)NC1CCN(c2ccnc(Nc3ccc(F)cc3)n2)C1 (stereo not drawn): 15
- C[C@@H]1CCN(C(=O)CO)C[C@@H]1N(C)c1ncnc2[nH]ccc12: 0
- CCCc1ccc(S(=O)(=O)NC2CCN(c3ccnc(Nc4ccc(OC)cc4)n3)C2)cc1 (stereo not drawn): 30
- Fc1cccc(COc2ccc(Nc3ncnc4sc(-c5ccc[nH]5)cc34)cc2Cl)c1: 14
- O=C(NCCCN1CCCC1=O)c1cnc(NCc2cc(Cl)ccc2Cl)nc1NC1CCNCC1: 0
- Oc1ccc2ncnc(Nc3ccc(OCc4ccccc4)cc3)c2c1: 7

---

The following compounds are listed with their measured %Inh values.
- System: PIM1
- experimentalSetup: concentration: 1 μM, replicates: in singlicate; n = 1
quantityMeasured: %Inh

- N#Cc1ccc(Oc2ccc(Nc3ncnc4cc[nH]c34)cc2Cl)cc1: 20%
- c1ccc(-c2ccc3c(-c4ccnc(Nc5ccc6c(c5)OCCO6)n4)cnn3n2)cc1 [GW818941]: 9%
- O=c1cc(N2CCOCC2)nc2n(Cc3cccc(Cl)c3)ccn12 [GSK2296823]: 0%
- Nc1nc(-c2ccccn2)c(-c2ccnc3ccccc23)s1 [GW548057]: 0%
- COc1ccc(Nc2nccc(N3CCC(NC(=O)c4cccc(NC(C)=O)c4)C3)n2)cc1 (stereo not drawn) [GSK1379732]: 0%
- Oc1ccc2ncnc(Nc3ccc(OCc4ccccc4)cc3)c2c1 [GI262866]: 0%
- FC(F)(F)c1ccc(-c2nn3ncccc3c2-c2ccnc(Nc3cccc(C(F)(F)F)c3)n2)cc1 [GW828205]: 12%
- Cc1cccc(-c2nc(Nc3ccc4[nH]nnc4c3)c3ccccc3n2)n1 [GW867587]: 17%
- CC(C)(C)c1ccc(-n2cnc3c(N)ncnc32)cc1 [SKF-97263]: 9%

---

- Tested on: CDK8
- experimentalSetup: concentration: 1 μM, replicates: in singlicate; n = 1
Parameter threshold = 10%. Response is MET when %Inh meets or exceeds it, else NOT MET.

- OCCOCCn1ccc2ncnc(Nc3ccc(Oc4cccc(Cl)c4)c(Cl)c3)c21: NOT MET
- Cl.Cl.c1ccc(-c2cc3ccncc3cc2OC2CCNCC2)cc1: MET
- CSc1ccc(NC2=C(c3ccccc3Cl)C(=O)NC2=O)cc1: NOT MET
- CNc1nccc(-c2c(-c3ccc(F)cc3)ncn2CCCN2CCOCC2)n1: MET
- FC(F)(F)c1ccc(-c2cc(-c3c[nH]nc3-c3ccccn3)ccn2)cc1: MET
- Cc1ccc(C)c(NC(=O)NCCNc2ccnc(Nc3ccc(F)cc3)n2)c1: MET
- Cl.O=S(=O)(c1cccc(F)c1)c1ccc(Nc2ncnc3cc(Br)sc23)cc1Cl: NOT MET
- Clc1ccc(-c2cc(-c3c[nH]nc3-c3ccccn3)ccn2)cc1: MET
- O=C(NCCCN1CCCC1=O)c1cnc(NCc2cc(Cl)ccc2Cl)nc1NC1CCNCC1: NOT MET
- Nc1n[nH]c2nnc(-c3ccccc3)cc12: NOT MET
- Cl.c1ccc(Cn2ccc3cc(Nc4ncnc5ccccc45)ccc32)cc1: NOT MET
- COc1ccc(NC(=O)Nc2ccc(C)c(-c3ccc(C(=O)Nc4ccncc4)cc3)c2)cc1: MET

Reference source for all entries: paper PMC5540273
